Provenance of the data: patent US8795990B2

- Test system: S-adenosylmethionine synthetase
- ASSAY_REMARKS: S-adenosylmethionine synthetase (MAT) activity in vitro in crude extracts, FIA-MS/MS
- Assay type: biochemical, E. coli
- ASSAY_CONTEXT: 10 mM methionine, 10 mM ATP, 37° C., 30 minutes
READOUT_NAME: MAT (S-adenosylmethionine synthetase activity)
Answer with the figure and its unit, nothing else.

Value of measured MAT (S-adenosylmethionine synthetase activity) for the entry MetK* G105S (protein, UniProt P0A817 2-384, looked up, variant G105S) S-adenosylmethionine synthase: AKHLFTSESVSEGHPDKIADQISDAVLDAILEQDPKARVACETYVKTGMVLVGGEITTSAWVDIEEITRNTVREIGYVHSDMGFDANSCAVLSAIGKQSPDINQSVDRADPLEQGAGDQGLMFGYATNETDVLMPAPITYAHRLVQRQAEVRKNGTLPWLRPDAKSQVTFQYDDGKIVGIDAVVLSTQHSEEIDQKSLQEAVMEEIIKPILPAEWLTSATKFFINPTGRFVIGGPMGDCGLTGRKIIVDTYGGMARHGGGAFSGKDPSKVDRSAAYAARYVAKNIVAAGLADRCEIQVSYAIGVAEPTSIMVETFGTEKVPSEQLTLLVREFFDLRPYGLIQMLDLLHPIYKETAAYGHFGREHFPWEKTDKAQLLRDAAGLK : 2.8 mUI/mg prot

Value of measured MAT (S-adenosylmethionine synthetase activity) for the entry MetK* P137L (protein, UniProt P0A817 2-384, looked up, variant P137L) S-adenosylmethionine synthase: AKHLFTSESVSEGHPDKIADQISDAVLDAILEQDPKARVACETYVKTGMVLVGGEITTSAWVDIEEITRNTVREIGYVHSDMGFDANSCAVLSAIGKQSPDINQGVDRADPLEQGAGDQGLMFGYATNETDVLMPALITYAHRLVQRQAEVRKNGTLPWLRPDAKSQVTFQYDDGKIVGIDAVVLSTQHSEEIDQKSLQEAVMEEIIKPILPAEWLTSATKFFINPTGRFVIGGPMGDCGLTGRKIIVDTYGGMARHGGGAFSGKDPSKVDRSAAYAARYVAKNIVAAGLADRCEIQVSYAIGVAEPTSIMVETFGTEKVPSEQLTLLVREFFDLRPYGLIQMLDLLHPIYKETAAYGHFGREHFPWEKTDKAQLLRDAAGLK : 1.2 mUI/mg prot
